Tested on: SNB-19
Assay: NCI tumour cell line growth inhibition, 48 h
Active and inactive are the calls of the source. No stated cut-off is given here; in the data, active = GI50 up to about 1.1 µM and inactive = higher.
Catalogue of GI50 values

Observe how each entry below is paired with its result.
NC1CC(=O)c2cc(Br)sc21 (stereo not given)
> 100 µM (inactive)
C[N+](C)(C)CC(=O)N/N=C(/Cc1cc(=O)oc2cc(O)ccc12)C(=O)Nc1ccc(Cl)cc1
> 100 µM (inactive)
COC(=O)[C@H](Cc1ccccc1)NC(=O)c1ccc(CNC(=O)/C=C/c2ccc(OCc3ccccc3)cc2)cc1
15.7 µM (inactive)
Nc1nnc(N)n1N
> 100 µM (inactive)

Continue with the compound presented below.
Challenge: Any idea what its GI50 is? The compound is O=c1c2cc(Br)cc(Br)c2[nH]c(=S)n1-c1ccc(/N=N/c2ccc(O)c3cccnc23)cc1
Response given: 19.7 µM (inactive)

====

System: CCRF-CEM
Test: NCI tumour cell line growth inhibition, 48 h
Calls of active or inactive are those of the source. Cut-off read from the data, not from the text of the source: active = GI50 up to about 1.1 µM and inactive = higher.
Thanks in advance; please answer with one of these: active, inactive

Challenge: So what was the verdict on CNC(=S)N/N=C(\C)c1ccc(OC)cc1O in this test?
Response given: active

Challenge: Query: recorded result category for COc1nc(=O)n(COC(CO)CN2C(=O)c3ccccc3C2=O)cc1Cc1cccc(OCc2ccccc2)c1 (stereo not given) in this test
Response given: inactive

Challenge: Any idea what this test logged for O=C1C(=C2SC(c3ccccc3)(c3ccccc3)c3ccccc32)C(=O)c2ccccc21 ?
Response given: inactive

Challenge: Tell me the assay call for C1=N\CCNCC/N=C\c2ccc(cc2)OCc2cccc(n2)COc2ccc/1cc2 please.
Response given: inactive

Challenge: Hi, sorry to bother you, what did the test record for O=C(/C=C/c1ccc(OCc2cccc(Cl)c2)cc1)NO ?
Response given: inactive

Challenge: Tell me the assay call for CCOC(=O)C(=O)/C=C(\C)Nc1c(NC2OCC(OC(C)=O)C(OC(C)=O)C2OC(C)=O)nc(SC)[nH]c1=O (stereo not given) please.
Response given: inactive

Challenge: // outcome(item) with item = COC12COC(=O)C1C(c1ccc3c(c1)OCO3)c1cc3c(cc1O2)OCO3 (stereo not given)
Response given: inactive

Challenge: Tell me the recorded outcome of this test for O=C(c1ccc(NCN2C(=O)CCC2=O)cc1)c1ccc(NCN2C(=O)CCC2=O)cc1 .
Response given: inactive

Challenge: // outcome(item) with item = Cc1c(C(=O)CC(=O)C(=O)Nc2ccccc2C(F)(F)F)[n+]([O-])c2ccccc2[n+]1[O-]
Response given: inactive

Challenge: // return assay outcome for CN(C)CCNC(=O)c1cccc2[nH]c(-c3ccccc3)nc12
Response given: inactive

Challenge: Could you kindly confirm the outcome this assay logged for O=C(O)C(C(=O)C(=O)C(C(=O)O)c1ccc(Cl)cc1)c1ccc(Cl)cc1 (stereo not given) ?
Response given: inactive

Challenge: Could you kindly confirm the outcome this assay logged for Cc1ccc2nc(N)[nH]c(=O)c2c1Sc1ccncc1 ?
Response given: inactive

Challenge: Dear colleague, could you share the recorded outcome for Clc1ccc(C(SCc2ccccc2)SCc2ccccc2)cc1 when you have a moment?
Response given: inactive

Challenge: Kindly provide the recorded test outcome for the following compound: COC(=O)C(=O)C(C(=O)C(=O)Nc1ccc([N+](=O)[O-])cc1[N+](=O)[O-])c1nc2ccc(Cl)cc2nc1O (stereo not given)
Response given: inactive

Challenge: State the result this test recorded for CCCCCCCC(=O)N1C2CC3CCC2(CS1(=O)=O)C3(C)C (stereo not given) .
Response given: inactive

Challenge: Kindly provide the recorded test outcome for the following compound: COC(=O)NN1C(C)=C(C(=O)OC)C2(CCOC2=O)C1(C)O (stereo not given)
Response given: inactive

====

Tested on: SW-620
Test: NCI tumour cell line growth inhibition, 48 h
The source made the active and inactive calls. No stated cut-off is given here; in the data, active = GI50 up to about 1.1 µM and inactive = higher.
Form entry, call: pick from active, inactive

CC1C[C@@H]2C(=O)NC(=O)[C@@H]2c2c1c1ccccc1n2C (stereo not given in full)
inactive
CCOC(=O)CCSS(=O)(=O)C(F)(F)F
inactive
CC(C)(C)[Si](C)(C)OCC1OC(n2cnc3c(NC(=O)c4ccccc4)ncnc32)CC1O (stereo not given)
inactive

Challenge: Check the results log: what was the call for COC1C(O)=C2C(=O)O/C(C)=C/C=C/C=C/C=C\CC(c3ccccc3)NC(=O)\C=C/C=C\C=C\C=C\[C@@]2(C)[C@@H]1O (stereo not given in full) ?
Response given: active

Challenge: Could you check what this test reported for COc1ccccc1C1C(Cl)C(=O)N1n1cnc2ccccc2c1=O (stereo not given) ?
Response given: inactive

Challenge: Called result for COC(=O)[C@H](Cc1ccccc1)NC(=O)N1CCCN(C(=O)N[C@@H](Cc2ccccc2)C(=O)OC)CCCN(C(=O)N[C@@H](Cc2ccccc2)C(=O)OC)CCC1
Response given: inactive

Challenge: For c1ccc2c(c1)SCCCSCCSCCCS2 , what call appears in the results of this test?
Response given: inactive

====

# maps each entry to its GI50
Test system: HCC 2998
Assay: NCI tumour cell line growth inhibition, 48 h
Activity calls are given as the source filed them. Rule as the data show it: active = GI50 up to about 1.1 µM and inactive = higher.

COc1ccc(C(=O)/C=C/c2cc(O)c(O)cc2F)c(OC)c1
2.27 µM (inactive)

Challenge: Which GI50 reading was recorded for the compound O=C(c1ccc(NCN2C(=O)CCC2=O)cc1)c1ccc(NCN2C(=O)CCC2=O)cc1 ?
Response given: > 100 µM (inactive)

Challenge: Fill in: GI50 of COC(=O)C1=CC2OC13CC1CCC3(C2=O)C1(C)C (configuration not stated) is ___
Response given: 14.5 µM (inactive)

Challenge: Form field: reported GI50 of O=c1c(-c2ccc(O)cc2)coc2cc(O)cc(O)c12 [GENISTEIN]
Response given: > 100 µM (inactive)

Challenge: Value lookup for GI50; key = O=[N+]([O-])C1C2C=CC(C2)[C@H]1c1ccccc1Cl (some centres not stated)
Response given: > 100 µM (inactive)

Challenge: Param item = COC(=O)C(Cc1nc2ccc(Cl)cc2nc1O)/C(=N/NC(N)=O)C(=O)Nc1ccc(Cl)cc1 (configuration not stated) ; retrieve measured GI50.
Response given: > 100 µM (inactive)

Challenge: Any idea what GI50 was measured for CCN(CC)c1ccc2cc3ccc(N(CC)CC)cc3[o+]c2c1 ?
Response given: 4.39 µM (inactive)

Challenge: Requested field: GI50. Item: C=C1c2ccccc2Oc2nc3nc(N)c(C#N)c(N)c3c(N)c21
Response given: 19.5 µM (inactive)

Challenge: Which GI50 reading was recorded for the compound c1ccc(CCCC2Sc3cccc4cccc(c34)S2)cc1 ?
Response given: 88.7 µM (inactive)

Challenge: Using the record for COP(=O)(OC)c1ccc(NCc2cc(O)ccc2O)cc1 , report its GI50.
Response given: 23 µM (inactive)

====

Tested on: HCT-116
Assay: NCI tumour cell line growth inhibition, 48 h
Active and inactive are the calls of the source. Cut-off read from the data, not from the text of the source: active = GI50 up to about 1.1 µM and inactive = higher.
parameter measured: GI50

The following compounds have reported results that may help.
Cc1cccc(C(C)C)c1N1C(=O)C(=O)C(c2nc3ccccc3o2)C(=O)C1=O
53.7 µM (inactive)
C=C1C(=O)O[C@@H]2C(=O)[C@@H](C)CCC/C(C)=C/CC[C@@]3(C)O[C@@H]3C[C@@H]12
29.4 µM (inactive)
CCCCCCCC(=O)N1C2CC3CCC2(CS1(=O)=O)C3(C)C (stereo not given)
30.1 µM (inactive)

Challenge: # GI50 lookup, item CCOP(=O)(/C=C\n1cc(C)c(=O)[nH]c1=O)OCC
Response given: > 100 µM (inactive)

Challenge: Any idea what its GI50 is? The compound is Cc1ccc(C(=O)O)c(/C=C2\Cc3cc(C)cc(C)c3C2=O)c1
Response given: 53.7 µM (inactive)

Challenge: Report GI50 for CN(CCNC(=O)c1cn(C)c2c1ccc1ccccc12)CCNC(=O)c1cn(C)c2c1ccc1ccccc12 please.
Response given: 1.99 µM (inactive)

Challenge: Requested read-out: GI50. Entry: CSc1c(C#N)c(N)n(-c2ccc(Cl)cc2)c(=O)c1C#N
Response given: > 100 µM (inactive)

Challenge: // lookup GI50 for Cc1csc(NCc2ccc(Cl)cc2)n1
Response given: 38.6 µM (inactive)

Challenge: Item under review: Cc1cc(Cl)cc2c1NC(=O)C2(O)C(C(=O)c1ccccc1)c1ccccc1 (stereo not given) . Reported GI50?
Response given: 23.4 µM (inactive)

Challenge: Field request: GI50 | item: COc1cccc(C=O)c1C(=O)c1cc(O)ccc1O
Response given: 20.1 µM (inactive)

====

Measured GI50 accompanies every entry in the list below.
Tested on: KM12
Assay: NCI tumour cell line growth inhibition, 48 h
Activity calls are given as the source filed them. No stated cut-off is given here; in the data, active = GI50 up to about 1.1 µM and inactive = higher.

// below: answered compounds
O=C1NC(Nc2cccc(Cl)c2)=N/C1=C\c1ccc(Cl)c(Cl)c1
3.37 µM (inactive)
Cn1c(CCC2(C)Cc3ccccc3C(=O)O2)cc2ccccc2c1=O (stereo unspecified)
4.66 µM (inactive)
COC(=O)CC(CC(=O)C(=O)OC)C(=O)OC (stereo unspecified)
> 100 µM (inactive)
COC1C(CN[N+](=O)CC2OC3OC(C)(C)OC3C2OC)OC2OC(C)(C)OC21 (stereo unspecified)
> 100 µM (inactive)
O=C(O)c1ccc(Cc2ccccc2C(=O)O)cc1
> 100 µM (inactive)

Alright, here's another compound for you.
Challenge: API: value(readout=GI50, system=KM12) for record COC(=O)/C=C1\C(=O)N(C(C)=O)c2ccc(Br)cc21
Response given: 14.3 µM (inactive)
